# target.entity: glutathione-S-transferase (GST) tagged LXRalpha LBD (ligand binding domain) (Homo sapiens)
# Sequence (Q13133 209-447 limits assumed): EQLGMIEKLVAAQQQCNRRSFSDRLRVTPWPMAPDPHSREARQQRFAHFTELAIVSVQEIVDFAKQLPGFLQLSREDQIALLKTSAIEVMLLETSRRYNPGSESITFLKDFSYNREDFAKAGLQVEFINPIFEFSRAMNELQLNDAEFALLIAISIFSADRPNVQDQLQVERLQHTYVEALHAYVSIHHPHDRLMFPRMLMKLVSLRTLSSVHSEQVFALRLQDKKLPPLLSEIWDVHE
# test.name: LanthaScreen TR-FRET Liver X Receptor Coactivator Assay, LXR alpha-LBD
# condition: potency (Inflection Point) of co-activator recruitment, TR-FRET; read-out: LXR alpha IP
pEC50: −log10 of the molar value.
Listed molecules paired with reported pEC50
value.type: pEC50

{"molecule": "CN(C)C(=O)c1ccc(-c2cnc(N3CCN(C(=O)OCc4ccccc4C(F)(F)F)CC3)c(C#N)c2)cc1Cl [Example 3-11]", "measured": 5.92}
{"molecule": "COc1ccc(COC(=O)N2CCN(c3ncc(-c4ccc(C(=O)N(C)C)c(Cl)c4)cc3C#N)CC2)cc1 [Example 3-8]", "measured": 4.61}
{"molecule": "CN(CCn1cccn1)C(=O)c1ccc(-c2cnc(N3CCN(C(=O)OC(C)(C)C)CC3)c(C#N)c2)cc1Cl [Example 5-23]", "measured": 4.71}
{"molecule": "CN(CCc1ccccc1)C(=O)c1ccc(-c2cnc(N3CCN(C(=O)OC(C)(C)C)CC3)c(C#N)c2)cc1Cl [Example 5-26]", "measured": 4.59}
{"molecule": "CN(C)C(=O)c1ccc(-c2cnc(N3CCN(C(=O)C(O)(c4ccccc4)C(F)(F)F)CC3)c(C#N)c2)cc1Cl (centres unmarked) [Example 2-32]", "measured": 5.52}
{"molecule": "CN(C)C(=O)c1ccc(-c2cnc(N3CCN(C(=O)c4c(F)cccc4F)CC3)c(C#N)c2)cc1Cl [Example 2-1]", "measured": 5.05}
{"molecule": "CN(C)C(=O)c1ccc(-c2cnc(N3CCN(C(=O)OCc4cncs4)CC3)c(C#N)c2)cc1Cl [Example 3-3]", "measured": 4.70}
{"molecule": "CN(C)C(=O)c1ccc(-c2ccc(N3CCN(S(=O)(=O)c4c(Cl)cccc4C(F)(F)F)CC3)cc2)cc1Cl [Example 4-14]", "measured": 5.01}
{"molecule": "COc1ccccc1COC(=O)N1CCN(c2ncc(-c3ccc(C(=O)N(C)C)c(Cl)c3)cc2C#N)CC1 [Example 3-7]", "measured": 5.07}
{"molecule": "CC(C)(C)OC(=O)N1CCN(c2ncc(-c3ccc(C(=O)N4CCCC4)c(Cl)c3)cc2C#N)CC1 [Example 5-9]", "measured": 4.84}
{"molecule": "CC(C)(C)OC(=O)N1CCN(c2ncc(-c3ccc(C(=O)N(CCCO)C4CC4)c(Cl)c3)cc2C#N)CC1 [Example 5-20]", "measured": 5.39}
{"molecule": "CN(C)C(=O)c1ccc(-c2cnc(N3CCN(C(=O)C(=O)C(F)(F)F)CC3)c(C#N)c2)cc1Cl [Example 2-9]", "measured": 4.78}
{"molecule": "CN(C)C(=O)c1ccc(-c2cnc(N3CCN(C(=O)C4(c5ccccc5)CCC4)CC3)c(C#N)c2)cc1Cl [Example 2-23]", "measured": 5.94}
{"molecule": "CN(C)C(=O)c1ccc(-c2ccc(N3CCN(C(=O)OC(C)(C)C)CC3)cc2)cc1Cl [Example 4-11]", "measured": 5.26}
{"molecule": "CN(CCO)C(=O)c1ccc(-c2cnc(N3CCN(C(=O)OC(C)(C)C)CC3)c(C#N)c2)cc1Cl [Example 5-1]", "measured": 5.90}
{"molecule": "CCN(C)C(=O)c1ccc(-c2cnc(N3CCN(C(=O)OC(C)(C)C)CC3)c(C#N)c2)cc1Cl [Example 5-5]", "measured": 5.57}
{"molecule": "CN(C)C(=O)c1ccc(-c2cnc(N3CCN(S(=O)(=O)C(F)F)CC3)c(C#N)c2)cc1Cl [Example 1-3]", "measured": 4.98}
{"molecule": "CC(C)S(=O)(=O)N1CCN(c2ncc(-c3ccc(C(=O)N(C)C)c(Cl)c3)cc2C#N)CC1 [Example 1-15]", "measured": 4.71}
{"molecule": "CN(C)C(=O)c1ccc(-c2ccc(N3CCN(S(=O)(=O)c4c(Cl)cccc4Cl)CC3)c(Cl)c2)cc1Cl [Example 4-8]", "measured": 4.98}
{"molecule": "CN(C)C(=O)c1ccc(-c2cnc(N3CCN(C(=O)OCc4cccc(Cl)c4)CC3)c(C#N)c2)cc1Cl [Example 3-10]", "measured": 4.63}
{"molecule": "CN(C)C(=O)c1ccc(-c2cnc(N3CCN(S(=O)(=O)c4ccccc4F)CC3)c(C#N)c2)cc1Cl [Example 1-8]", "measured": 4.92}
{"molecule": "CN(C)C(=O)c1ccc(-c2cnc(N3CCN(S(=O)(=O)C4CC4)CC3)c(C#N)c2)cc1Cl [Example 1-2]", "measured": 4.65}
{"molecule": "CN(C)C(=O)c1ccc(-c2cnc(N3CCN(S(=O)(=O)C4CCCCC4)CC3)c(C#N)c2)cc1Cl [Example 1-7]", "measured": 4.85}
